# tested on: UniProtKB Q8BLA8
# Sequence (Q8BLA8 whole entry): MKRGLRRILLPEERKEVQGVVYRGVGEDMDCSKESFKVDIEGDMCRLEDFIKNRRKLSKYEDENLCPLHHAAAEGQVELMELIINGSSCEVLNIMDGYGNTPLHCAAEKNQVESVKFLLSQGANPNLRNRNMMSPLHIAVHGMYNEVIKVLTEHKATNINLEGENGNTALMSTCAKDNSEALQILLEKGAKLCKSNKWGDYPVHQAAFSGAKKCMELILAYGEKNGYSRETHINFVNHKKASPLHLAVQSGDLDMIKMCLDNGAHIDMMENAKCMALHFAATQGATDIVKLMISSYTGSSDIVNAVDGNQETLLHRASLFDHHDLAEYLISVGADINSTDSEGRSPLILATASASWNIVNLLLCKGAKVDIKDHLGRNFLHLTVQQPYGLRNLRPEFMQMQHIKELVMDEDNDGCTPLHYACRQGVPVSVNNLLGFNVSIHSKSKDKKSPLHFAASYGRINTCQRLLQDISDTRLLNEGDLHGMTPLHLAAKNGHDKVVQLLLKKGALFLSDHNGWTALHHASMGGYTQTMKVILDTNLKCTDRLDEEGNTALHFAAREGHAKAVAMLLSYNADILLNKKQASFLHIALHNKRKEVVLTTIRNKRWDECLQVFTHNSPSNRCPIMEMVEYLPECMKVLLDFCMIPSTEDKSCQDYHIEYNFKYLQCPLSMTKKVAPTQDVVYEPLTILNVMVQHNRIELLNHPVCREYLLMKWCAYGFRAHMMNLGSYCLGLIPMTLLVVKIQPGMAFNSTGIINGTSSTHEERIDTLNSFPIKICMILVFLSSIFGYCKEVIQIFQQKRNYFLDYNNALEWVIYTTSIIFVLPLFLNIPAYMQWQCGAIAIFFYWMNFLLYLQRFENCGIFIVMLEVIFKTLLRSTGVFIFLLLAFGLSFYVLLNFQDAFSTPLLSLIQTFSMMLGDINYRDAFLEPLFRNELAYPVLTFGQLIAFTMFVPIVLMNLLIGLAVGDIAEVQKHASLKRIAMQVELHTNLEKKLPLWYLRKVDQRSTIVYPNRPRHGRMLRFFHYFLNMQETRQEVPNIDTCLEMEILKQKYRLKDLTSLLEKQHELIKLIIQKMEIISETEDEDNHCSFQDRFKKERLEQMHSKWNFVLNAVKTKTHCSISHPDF
# experiment notes: Fluo-4 calcium plate-reader assay, HEK293 cells transfected with mTRPA1, cinnamaldehyde activation
metric: IC50 (µM)
Express your answer in µM, writing the number without its unit.

Q: Lab request: please report IC50 under test system UniProtKB Q8BLA8 for CC1CCN(c2nc(C(F)(F)F)ccc2Cc2noc(-c3cccc4[nH]c(=O)[nH]c34)n2)CC1 [compound 50]
A: 2.84

Measured values drawn from paper PMC11435370 for this set.
